Data provenance: patent US20050191735A1

system: recombinant Lactobacillus reuteri oxidoreductase; experiment: Substrate spectrum in standard measurement mixture; assay type: biochemical; conditions: reduction with NADPH; activity with ethyl 2-oxo-4-phenylbutyrate set to 100%
OBSERVATION TYPE: Relative activity %
Quick note: unit goes after the number.

For orientation, consider the following solved cases.
COMPOUND	Relative activity %
CCCCCCC(C)=O [2-Octanone]	1%
CCCCCCCC(=O)c1ccccc1 [Caprylophenone]	0%
CCOC(=O)CC(=O)CCl [Ethyl 4-chloro-acetoacetate]	16%
COC(=O)CC(C)=O [Methyl acetoacetate]	0.3%
CC(=O)c1ccccc1 [Acetophenone]	0%

Problem: Entry CCOC(=O)CC(=O)CC [Ethyl 3-oxo-valerate] : reported Relative activity % = ?
Solution: 1.3%

Problem: Entry CCOC(=O)CCCCC(=O)CCCl [Ethyl 8-chloro-6-oxooctanoic acid] : reported Relative activity % = ?
Solution: 190%

Problem: Entry CCOC(=O)C(=O)c1ccccc1 [Ethyl phenylglyoxylate] : reported Relative activity % = ?
Solution: 2%

Problem: Entry CCCCCC(=O)CC [3-Octanone] : reported Relative activity % = ?
Solution: 4%

Problem: Entry CCCC(=O)C(=O)O [2-Oxovaleric acid] : reported Relative activity % = ?
Solution: 0%
